The origin of these recorded values is patent US20160185837A1.

# TEST TARGET: human GLP-1 receptor (human, UniProt P43220 24-463)
# PROTOCOL NOTES: cell-based or functional assay
READOUT NAME: cAMP EC50, Batch 2 (nM)

binder="IP296 (Fc fusion) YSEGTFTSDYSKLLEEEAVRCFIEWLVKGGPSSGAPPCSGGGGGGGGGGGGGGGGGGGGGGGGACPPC" result_value=0.39
binder="IP200 (Fc fusion) YSQGTFTSDYSKILEEEAVRLFIEWLVKGPAAAGGSGSTASSGSGSATGGGGAATHTCPPCPAPEF" result_value=0.077
binder="IP201 (Fc fusion) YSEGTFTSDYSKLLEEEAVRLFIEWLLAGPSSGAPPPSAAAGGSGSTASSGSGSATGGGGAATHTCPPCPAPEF" result_value=0.56
